PROCEDURE_TEXT: Cytotoxicity assay, HeLa
Format: cell-based
PROTOCOL_CONDITIONS: human, HeLa cells, DMEM + 10% fetal bovine serum, 37 °C, WST-8, absorbance 450 nm, read-out: Cytotoxic activity, IC50
*1 amine or outer side, *2 acyl side, *3 side chain or, on linkers, in order; H or OH if unused. Where a SMILES comes first, the peptide text is derived from it. [ ]: non-standard residue; d: D form. X1 = CCC(C)CCCCCCCCCC[C@H](CC(=O)[*:2])N[*:1]; X2 = CC(C)CCCCCCCCCCC[C@H](CC(=O)[*:2])N[*:1]; Hyp = O=C(O)[C@@H]1C[C@@H](O)CN1
PROPERTY_MEASURED: IC50 at 48 h (µM)
Field: numeric (µM). Do not append units.

# MOLECULE, UNIT_SPEC, IC50 at 48 h
measured = [
    ("CC(C)CCCCCCCCCCC[C@@H]1CC(=O)N[C@@H](CC(N)=O)C(=O)N[C@H](Cc2ccc(O)cc2)C(=O)N[C@H](CC(N)=O)C(=O)N[C@@H](CCC(N)=O)C(=O)N2C[C@H](O)C[C@H]2C(=O)N[C@H](CC(N)=O)C(=O)N[C@@H](CO)C(=O)N1 [Compound 1, Iturin F1] (cyclo(N[dY][dN]Q[Hyp][dN]S[X2]))", "µM", 8.9),
]

So, CC(C)CCCCCCCCCCC[C@@H]1CC(=O)N[C@@H](CC(N)=O)C(=O)N[C@H](Cc2ccc(O)cc2)C(=O)N[C@H](CC(N)=O)C(=O)N[C@@H](CCC(N)=O)C(=O)N2CCC[C@H]2C(=O)N[C@H](CC(N)=O)C(=O)N[C@@H](CO)C(=O)N1 [Compound 3, Iturin A9] (cyclo(N[dY][dN]QP[dN]S[X2])) ? Its IC50 at 48 h was 4.6

So, CCC(C)CCCCCCCCCC[C@@H]1CC(=O)N[C@@H](CC(N)=O)C(=O)N[C@H](Cc2ccc(O)cc2)C(=O)N[C@H](CC(N)=O)C(=O)N[C@@H](CCC(N)=O)C(=O)N2C[C@H](O)C[C@H]2C(=O)N[C@H](CC(N)=O)C(=O)N[C@@H](CO)C(=O)N1 (stereo partly drawn) [Compound 2, Iturin F2] (cyclo(N[dY][dN]Q[Hyp][dN]S[X1])) ? Its IC50 at 48 h was 7.8

---

Reported IC50 at 48 h values are given for each entry in this list.
PROCEDURE_TEXT: Cytotoxicity assay, src^ts-NRK
Type: cell-based
PROTOCOL_CONDITIONS: rat, src^ts-NRK cells, MEM + 10% calf serum, 32 °C (permissive temperature), WST-8, absorbance 450 nm, read-out: Cytotoxic activity, IC50
*1 amine or outer side, *2 acyl side, *3 side chain or, on linkers, in order; H or OH if unused. Where a SMILES comes first, the peptide text is derived from it. [ ]: non-standard residue; d: D form. X1 = CCC(C)CCCCCCCCCC[C@H](CC(=O)[*:2])N[*:1]; X2 = CC(C)CCCCCCCCCCC[C@H](CC(=O)[*:2])N[*:1]; Hyp = O=C(O)[C@@H]1C[C@@H](O)CN1
Respond with the figure and its unit, in that order.

# COMPOUND, IC50 at 48 h
data = [
    ("CCC(C)CCCCCCCCCC[C@@H]1CC(=O)N[C@@H](CC(N)=O)C(=O)N[C@H](Cc2ccc(O)cc2)C(=O)N[C@H](CC(N)=O)C(=O)N[C@@H](CCC(N)=O)C(=O)N2C[C@H](O)C[C@H]2C(=O)N[C@H](CC(N)=O)C(=O)N[C@@H](CO)C(=O)N1 (stereo partly shown) [Compound 2, Iturin F2] (cyclo(N[dY][dN]Q[Hyp][dN]S[X1]))", "7.4 µM"),
    ("CC(C)CCCCCCCCCCC[C@@H]1CC(=O)N[C@@H](CC(N)=O)C(=O)N[C@H](Cc2ccc(O)cc2)C(=O)N[C@H](CC(N)=O)C(=O)N[C@@H](CCC(N)=O)C(=O)N2CCC[C@H]2C(=O)N[C@H](CC(N)=O)C(=O)N[C@@H](CO)C(=O)N1 [Compound 3, Iturin A9] (cyclo(N[dY][dN]QP[dN]S[X2]))", "5.2 µM"),
    ("CC(C)CCCCCCCCCCC[C@@H]1CC(=O)N[C@@H](CC(N)=O)C(=O)N[C@H](Cc2ccc(O)cc2)C(=O)N[C@H](CC(N)=O)C(=O)N[C@@H](CCC(N)=O)C(=O)N2C[C@H](O)C[C@H]2C(=O)N[C@H](CC(N)=O)C(=O)N[C@@H](CO)C(=O)N1 [Compound 1, Iturin F1] (cyclo(N[dY][dN]Q[Hyp][dN]S[X2]))", "8.9 µM"),
]

Now for the compound whose IC50 at 48 h we want.
So, CCC(C)CCCCCCCCCC[C@@H]1CC(=O)N[C@@H](CC(N)=O)C(=O)N[C@H](Cc2ccc(O)cc2)C(=O)N[C@H](CC(N)=O)C(=O)N[C@@H](CCC(N)=O)C(=O)N2CCC[C@H]2C(=O)N[C@H](CC(N)=O)C(=O)N[C@@H](CO)C(=O)N1 (stereo partly shown) [Compound 4, Iturin A8] (cyclo(N[dY][dN]QP[dN]S[X1])) ? Its IC50 at 48 h was 9 µM

---

Reported MIC values are given for each entry in this list.
Tested on: Aspergillus flavus KCTC 6984
PROCEDURE_TEXT: Antifungal assay (MIC), Aspergillus flavus
Format: cell-based
PROTOCOL_CONDITIONS: Aspergillus flavus; potato dextrose broth; 2% of overnight cultures; 28 °C, 72 h; lowest concentration preventing visible growth
*1 amine or outer side, *2 acyl side, *3 side chain or, on linkers, in order; H or OH if unused. Where a SMILES comes first, the peptide text is derived from it. [ ]: non-standard residue; d: D form. X1 = CCC(C)CCCCCCCCCC[C@H](CC(=O)[*:2])N[*:1]; X2 = CC(C)CCCCCCCCCCC[C@H](CC(=O)[*:2])N[*:1]; Hyp = O=C(O)[C@@H]1C[C@@H](O)CN1
Field: numeric (µg/mL). Do not append units.

Worked set:
# MOLECULE, MIC (µg/mL)
measured = [
    ("CCC(C)CCCCCCCCCC[C@@H]1CC(=O)N[C@@H](CC(N)=O)C(=O)N[C@H](Cc2ccc(O)cc2)C(=O)N[C@H](CC(N)=O)C(=O)N[C@@H](CCC(N)=O)C(=O)N2C[C@H](O)C[C@H]2C(=O)N[C@H](CC(N)=O)C(=O)N[C@@H](CO)C(=O)N1 (stereo partly drawn) [Compound 2, Iturin F2] (cyclo(N[dY][dN]Q[Hyp][dN]S[X1]))", 3.125),
    ("CC(C)CCCCCCCCCCC[C@@H]1CC(=O)N[C@@H](CC(N)=O)C(=O)N[C@H](Cc2ccc(O)cc2)C(=O)N[C@H](CC(N)=O)C(=O)N[C@@H](CCC(N)=O)C(=O)N2CCC[C@H]2C(=O)N[C@H](CC(N)=O)C(=O)N[C@@H](CO)C(=O)N1 [Compound 3, Iturin A9] (cyclo(N[dY][dN]QP[dN]S[X2]))", 25),
]

Now for the molecule whose MIC we want.
So, CC(C)CCCCCCCCCCC[C@@H]1CC(=O)N[C@@H](CC(N)=O)C(=O)N[C@H](Cc2ccc(O)cc2)C(=O)N[C@H](CC(N)=O)C(=O)N[C@@H](CCC(N)=O)C(=O)N2C[C@H](O)C[C@H]2C(=O)N[C@H](CC(N)=O)C(=O)N[C@@H](CO)C(=O)N1 [Compound 1, Iturin F1] (cyclo(N[dY][dN]Q[Hyp][dN]S[X2])) ? Its MIC was 3.125
